Target Or Test System: TDP-43 (Homo sapiens, UniProt Q13148 1-414)
Sequence (Q13148 whole entry): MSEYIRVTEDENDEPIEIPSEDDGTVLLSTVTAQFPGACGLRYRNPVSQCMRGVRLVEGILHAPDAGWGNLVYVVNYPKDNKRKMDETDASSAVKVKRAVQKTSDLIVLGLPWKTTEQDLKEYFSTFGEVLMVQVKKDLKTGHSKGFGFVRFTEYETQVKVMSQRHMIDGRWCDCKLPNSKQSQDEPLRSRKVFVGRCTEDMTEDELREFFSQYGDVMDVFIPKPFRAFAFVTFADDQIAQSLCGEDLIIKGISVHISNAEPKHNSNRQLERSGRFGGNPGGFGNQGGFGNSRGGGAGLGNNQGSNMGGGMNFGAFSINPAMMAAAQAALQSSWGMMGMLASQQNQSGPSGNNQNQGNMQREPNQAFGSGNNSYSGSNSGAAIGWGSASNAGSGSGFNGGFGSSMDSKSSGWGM
Protocol: RNA Bind-n-Seq with designed 260-mer pool; 25 mM Tris-HCl, 150 mM KCl, 3 mM MgCl2, BSA (printed 500 mg/mL), 20 units/mL SUPERase IN; pH not stated; 500 nM RNA pool, 1 h, 4 C; TDP-43 5, 50, 500 nM; high values mean tight binding
Run Conditions: protein: recombinant; tags: SBP (GST cleaved off with PreScission; pGEX-GST-SBP)
Whole data set: some 9,900 sequences, median “r (bound/input frequency ratio)” near 0.7, cut for the highest 2% near 6.5. Only a selection was taken, and the highest values are over-represented in it overall.
Measurement Label: binding signal

In: Fill blank: measured binding signal of the binder ENSMUSG00000061578.966|Ksr2 (ssRNA) RNA: GGGAGUUCUACAGUCCGACGAUCGCUUCGAUAUCCGCAUGCUAGCCCUGGAUGUGACUAUAUGUGCUGAGAAGGGAAGGUAGUUUUCCCCCAGAAAGUCCCUUCUAAUAAACAUUGAUGACUUUAGAAUCCAUGACUCAGAAUUUUCCAGAGACCCAAUCCCUCGGGGUCCACUUAGUGAUGGGACCAUACAAGAGUUUAUUUCCAAUUAGAGAAUUGGGUCAACUGGGAAAGGCUUCUUUCCUGGUAACCCUGCUACUGAUACUAUGUUGAAACAGGAAUCGACUCUAACUGCUUUUUGGCCCUCUUGCGGUCGCACUAGUGUGGAAUUCUCGGGUGUCAAGG is ____.
Out: 0.302 R (bound/input frequency ratio)
